# Tested on: DLD1 NRF2-WT
# ASSAY REMARKS: drug sensitivity score (DSS) viability (DSS score); higher = more sensitive; extreme values may be limits of the assay
# ASSAY SETUP: 72 h; CellTiter-Glo viability
drug sensitivity score under 6 gets 1, anything at or over 6 gets 0.

INSERT INTO measurements (molecule, class_label) VALUES
  ('Cc1nc(-c2cn3c(n2)-c2ccc(-c4cnn(C(C)(C)C(N)=O)c4)cc2OCC3)n(C(C)C)n1', 1),
  ('CC(C)c1cc(-c2n[nH]c(=O)n2-c2ccc3c(ccn3C)c2)c(O)cc1O', 0),
  ('C#Cc1cccc(Nc2ncnc3cc(OCCOC)c(OCCOC)cc23)c1', 0),
  ('CNC(=O)c1ccc(N2C(=S)N(c3ccc(C#N)c(C(F)(F)F)c3)C(=O)C2(C)C)cc1F [Enzalutamide]', 1),
  ('O=C(Nc1ccncc1)C(=O)c1cn(Cc2ccc(Cl)cc2)c2ccccc12', 0),
  ('CCNc1nc(Nc2cc(F)c(C(=O)N3CCOCC3)cc2OC)ncc1C(F)(F)F', 1),
  ('CCN(CC)CCNC(=O)c1c(C)[nH]c(/C=C2\C(=O)Nc3ccc(F)cc32)c1C', 1),
  ('CC[C@H](C)C(=O)O[C@H]1C[C@@H](C)C=C2C=C[C@H](C)[C@H](CC[C@@H]3C[C@@H](O)CC(=O)O3)[C@H]21', 1);

----------
# Test system: DLD1 NRF2-WT
# ASSAY REMARKS: drug sensitivity score (DSS) viability (DSS score); higher = more sensitive; extreme values may be limits of the assay
# ASSAY SETUP: 72 h; CellTiter-Glo viability
# key: entry, value: drug sensitivity score
RECORDED ENDPOINT: drug sensitivity score

INSERT INTO measurements (molecule, recorded_endpoint, value_measured) VALUES
  ('Cc1cc(Nc2ncc(Cl)c(Nc3ccccc3S(=O)(=O)C(C)C)n2)c(OC(C)C)cc1C1CCNCC1 [Ceritinib]', 'drug sensitivity score', 5.2),
  ('Nc1ncn([C@@H]2O[C@H](CO)[C@@H](O)[C@H]2O)c(=O)n1 [Azacitidine]', 'drug sensitivity score', 1),
  ('CC(C)N(CCCNC(=O)Nc1ccc(C(C)(C)C)cc1)C[C@H]1O[C@@H](n2cc(Br)c3c(N)ncnc32)[C@H](O)[C@@H]1O [SGC0946]', 'drug sensitivity score', 0.9),
  ('CC(=O)[C@]1(O)Cc2c(O)c3c(c(O)c2[C@@H](O[C@H]2C[C@H](N)[C@H](O)[C@H](C)O2)C1)C(=O)c1ccccc1C3=O [Idarubicin]', 'drug sensitivity score', 14.2),
  ('Nc1ncnc2c1nc(Cl)n2[C@@H]1O[C@H](CO)[C@@H](O)[C@H]1O [8-chloro-adenosine]', 'drug sensitivity score', 16.6),
  ('Cc1ccc(-n2nc(C(C)(C)C)cc2NC(=O)Nc2ccc(OCCN3CCOCC3)c3ccccc23)cc1 [Doramapimod]', 'drug sensitivity score', 0),
  ('CC1CCC(n2c3cnccc3c3cnc(Nc4ccc5c(n4)CCN(C(=O)CO)C5)nc32)CC1 (configuration not stated) [AMG-925]', 'drug sensitivity score', 3.2);

----------
# key: entry, value: TC50 cytotoxicity
# Tested on: DLD1 NRF2-GOF
# ASSAY REMARKS: TC50 cytotoxicity; higher = less toxic
# ASSAY SETUP: 72 h; CellTox Green cytotoxicity
RECORDED ENDPOINT: TC50 cytotoxicity

INSERT INTO results (compound, measured_on, value_measured) VALUES
  ('Cn1nccc1Nc1nccc(-c2ccn([C@H](CO)c3ccc(Cl)c(F)c3)c(=O)c2)n1', 'DLD1 NRF2-GOF', '> 10 µM'),
  ('CC(C)[C@@H](CS(=O)(=O)C(C)C)N1C(=O)[C@@](C)(CC(=O)O)C[C@H](c2cccc(Cl)c2)[C@H]1c1ccc(Cl)cc1', 'DLD1 NRF2-GOF', '> 10 µM'),
  ('Nc1ncnc2c1c(COc1cccc(Cl)c1)nn2C1CCOCC1', 'DLD1 NRF2-GOF', '> 10 µM'),
  ('Oc1ncnc2[nH]ncc12', 'DLD1 NRF2-GOF', '> 10 µM'),
  ('NC1(c2ccc(-c3nc4ccn5c(=O)[nH]nc5c4cc3-c3ccccc3)cc2)CCC1', 'DLD1 NRF2-GOF', '> 1 µM'),
  ('CC(C)Nc1cc(-c2c[nH]c(C(=O)N[C@H](CO)c3cccc(Cl)c3)c2)c(Cl)cn1', 'DLD1 NRF2-GOF', '> 10 µM'),
  ('CO[C@H]1C[C@@H]2CC[C@@H](C)[C@@](O)(O2)C(=O)C(=O)N2CCCC[C@H]2C(=O)O[C@H]([C@H](C)C[C@@H]2CC[C@@H](OCCO)[C@H](OC)C2)CC(=O)[C@H](C)/C=C(\C)[C@@H](O)[C@@H](OC)C(=O)[C@H](C)C[C@H](C)/C=C/C=C/C=C/1C', 'DLD1 NRF2-GOF', '> 0.1 µM'),
  ('c1cn2cc(-c3ccc4cn[nH]c4c3)nc(Nc3ccc(N4CCOCC4)cc3)c2n1', 'DLD1 NRF2-GOF', '> 5 µM'),
  ('C[C@H]1C[C@@H](n2c(Nc3ccc(OC(F)(F)F)cc3)nc3cc(CCC(=O)O)ccc32)CC(C)(C)C1', 'DLD1 NRF2-GOF', '> 10 µM'),
  ('CN(C)CCOc1ccc(/C(=C(/CCCl)c2ccccc2)c2ccccc2)cc1', 'DLD1 NRF2-GOF', '> 10 µM'),
  ('C[C@@H]1CN(C(=O)c2ccc(NC(=O)c3cc(O[C@H](C)c4c(Cl)ccc(F)c4Cl)c(N)nn3)cc2)C[C@H](C)N1', 'DLD1 NRF2-GOF', '> 1 µM'),
  ('CCC1=C[C@@H]2CN(C1)Cc1c([nH]c3ccccc13)[C@@](C(=O)OC)(c1cc3c(cc1OC)N(C)[C@H]1[C@@](O)(C(=O)OC)[C@H](OC(C)=O)[C@]4(CC)C=CCN5CC[C@]31[C@@H]54)C2', 'DLD1 NRF2-GOF', '> 10 µM'),
  ('O=C1NC(=O)[C@@H](c2cn3c4c(cccc24)CCC3)[C@@H]1c1c[nH]c2ccccc12 [Tivantinib]', 'DLD1 NRF2-GOF', '> 1 µM'),
  ('CCc1c(C(=O)C(N)=O)c2c(OCC(=O)O)cccc2n1Cc1ccccc1', 'DLD1 NRF2-GOF', '> 10 µM');
